The reported measurements were obtained from patent US20140213531A1.

target: Tryptase, from human lung (human, UniProt Q15661 31-275, limits assumed); test: cell-based or functional assay
Sequence (Q15661 31-275 limits assumed): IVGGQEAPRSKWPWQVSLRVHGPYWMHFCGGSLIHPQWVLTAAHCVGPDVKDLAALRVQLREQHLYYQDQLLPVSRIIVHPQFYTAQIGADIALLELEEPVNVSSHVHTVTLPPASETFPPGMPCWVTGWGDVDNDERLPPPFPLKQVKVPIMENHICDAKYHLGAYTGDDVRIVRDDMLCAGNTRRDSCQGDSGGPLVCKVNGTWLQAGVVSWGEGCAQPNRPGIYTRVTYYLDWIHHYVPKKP
Bridges are numbered along the chain shown (N, C = ends). [ ]: non-standard residue; d: D form. AlloThr = allo threonine
Decision: % inhibition at 100 µM compared against 70%; not below it gives condition met, below it gives condition not met.

As a guide, the following entries are already answered.
binder: FCTKSEPPICT (HELM PEPTIDE1{F.C.T.K.S.E.P.P.I.C.T.[dP].P}$PEPTIDE1,PEPTIDE1,2:R3-10:R3|PEPTIDE1,PEPTIDE1,1:R1-13:R2$$$V2.0; SMILES CC[C@H](C)[C@@H]1NC(=O)[C@@H]2CCCN2C(=O)[C@@H]2CCCN2C(=O)[C@H](CCC(=O)O)NC(=O)[C@H](CO)NC(=O)[C@H](CCCCN)NC(=O)[C@H]([C@@H](C)O)NC(=O)[C@@H]2CSSC[C@H](NC1=O)C(=O)N[C@@H]([C@@H](C)O)C(=O)N1CCC[C@@H]1C(=O)N1CCC[C@H]1C(=O)N[C@@H](Cc1ccccc1)C(=O)N2) [Example 1]
assignedLabel: condition not met
--
binder: XCTKSDPPICY (HELM PEPTIDE1{[Cha].C.T.K.S.D.P.P.I.C.Y.[dP].P}$PEPTIDE1,PEPTIDE1,2:R3-10:R3|PEPTIDE1,PEPTIDE1,1:R1-13:R2$$$V2.0; SMILES CC[C@H](C)[C@@H]1NC(=O)[C@@H]2CCCN2C(=O)[C@@H]2CCCN2C(=O)[C@H](CC(=O)O)NC(=O)[C@H](CO)NC(=O)[C@H](CCCCN)NC(=O)[C@H]([C@@H](C)O)NC(=O)[C@@H]2CSSC[C@H](NC1=O)C(=O)N[C@@H](Cc1ccc(O)cc1)C(=O)N1CCC[C@@H]1C(=O)N1CCC[C@H]1C(=O)N[C@@H](CC1CCCCC1)C(=O)N2) [Example 36]
assignedLabel: condition met
--
binder: cyclo(FCTK[AlloThr]DPPICS[dP]P) (disulfide 2-10) [Example 24]
assignedLabel: condition not met
--
binder: FCTKSDPPICS (HELM PEPTIDE1{F.C.T.K.S.D.P.P.I.C.S.[dP].E}$PEPTIDE1,PEPTIDE1,2:R3-10:R3|PEPTIDE1,PEPTIDE1,1:R1-13:R2$$$V2.0; SMILES CC[C@H](C)[C@@H]1NC(=O)[C@@H]2CCCN2C(=O)[C@@H]2CCCN2C(=O)[C@H](CC(=O)O)NC(=O)[C@H](CO)NC(=O)[C@H](CCCCN)NC(=O)[C@H]([C@@H](C)O)NC(=O)[C@@H]2CSSC[C@H](NC1=O)C(=O)N[C@@H](CO)C(=O)N1CCC[C@@H]1C(=O)N[C@@H](CCC(=O)O)C(=O)N[C@@H](Cc1ccccc1)C(=O)N2) [Example 64]
assignedLabel: condition not met
--
binder: ICTXSDPPICR (HELM PEPTIDE1{I.C.T.[Nle].S.D.P.P.I.C.R.[dP].P}$PEPTIDE1,PEPTIDE1,2:R3-10:R3|PEPTIDE1,PEPTIDE1,1:R1-13:R2$$$V2.0; SMILES CCCC[C@@H]1NC(=O)[C@H]([C@@H](C)O)NC(=O)[C@@H]2CSSC[C@H](NC(=O)[C@H]([C@@H](C)CC)NC(=O)[C@@H]3CCCN3C(=O)[C@@H]3CCCN3C(=O)[C@H](CC(=O)O)NC(=O)[C@H](CO)NC1=O)C(=O)N[C@@H](CCCNC(=N)N)C(=O)N1CCC[C@@H]1C(=O)N1CCC[C@H]1C(=O)N[C@@H]([C@@H](C)CC)C(=O)N2) [Example 59]
assignedLabel: condition not met

## Task Given cyclo(ICTKSDPAICR[dP]P) (disulfide 2-10) [Example 14] , state whether its % inhibition at 100 µM is at least 70%.
## Result condition met

## Task Say whether ICTKSDPPQCR (HELM PEPTIDE1{I.C.T.K.S.D.P.P.Q.C.R.[dP].P}$PEPTIDE1,PEPTIDE1,2:R3-10:R3|PEPTIDE1,PEPTIDE1,1:R1-13:R2$$$V2.0; SMILES CC[C@H](C)[C@@H]1NC(=O)[C@@H]2CCCN2C(=O)[C@H]2CCCN2C(=O)[C@H](CCCNC(=N)N)NC(=O)[C@@H]2CSSC[C@H](NC1=O)C(=O)N[C@@H]([C@@H](C)O)C(=O)N[C@@H](CCCCN)C(=O)N[C@@H](CO)C(=O)N[C@@H](CC(=O)O)C(=O)N1CCC[C@H]1C(=O)N1CCC[C@H]1C(=O)N[C@@H](CCC(N)=O)C(=O)N2) [Example 17] shows % inhibition at 100 µM of 70% or more.
## Result condition met

## Task Check if % inhibition at 100 µM >= 70% (inclusive). Item: FCTKSDPPICS (HELM PEPTIDE1{F.C.T.K.S.D.P.P.I.C.S.[dD].P}$PEPTIDE1,PEPTIDE1,2:R3-10:R3|PEPTIDE1,PEPTIDE1,1:R1-13:R2$$$V2.0; SMILES CC[C@H](C)[C@@H]1NC(=O)[C@@H]2CCCN2C(=O)[C@@H]2CCCN2C(=O)[C@H](CC(=O)O)NC(=O)[C@H](CO)NC(=O)[C@H](CCCCN)NC(=O)[C@H]([C@@H](C)O)NC(=O)[C@@H]2CSSC[C@H](NC1=O)C(=O)N[C@@H](CO)C(=O)N[C@H](CC(=O)O)C(=O)N1CCC[C@H]1C(=O)N[C@@H](Cc1ccccc1)C(=O)N2) [Example 46]
## Result condition not met
